- tgt: MEPE-PHEX interaction (Homo sapiens, UniProt P78562)
- Construct: to generate a soluble, secreted form of PHEX; made in house; host or cells: secPHEX: mammalian cells (gift, University of Montreal); MEPE: S. frugiperda insect cells
- Sequence (P78562 46-749 limits assumed): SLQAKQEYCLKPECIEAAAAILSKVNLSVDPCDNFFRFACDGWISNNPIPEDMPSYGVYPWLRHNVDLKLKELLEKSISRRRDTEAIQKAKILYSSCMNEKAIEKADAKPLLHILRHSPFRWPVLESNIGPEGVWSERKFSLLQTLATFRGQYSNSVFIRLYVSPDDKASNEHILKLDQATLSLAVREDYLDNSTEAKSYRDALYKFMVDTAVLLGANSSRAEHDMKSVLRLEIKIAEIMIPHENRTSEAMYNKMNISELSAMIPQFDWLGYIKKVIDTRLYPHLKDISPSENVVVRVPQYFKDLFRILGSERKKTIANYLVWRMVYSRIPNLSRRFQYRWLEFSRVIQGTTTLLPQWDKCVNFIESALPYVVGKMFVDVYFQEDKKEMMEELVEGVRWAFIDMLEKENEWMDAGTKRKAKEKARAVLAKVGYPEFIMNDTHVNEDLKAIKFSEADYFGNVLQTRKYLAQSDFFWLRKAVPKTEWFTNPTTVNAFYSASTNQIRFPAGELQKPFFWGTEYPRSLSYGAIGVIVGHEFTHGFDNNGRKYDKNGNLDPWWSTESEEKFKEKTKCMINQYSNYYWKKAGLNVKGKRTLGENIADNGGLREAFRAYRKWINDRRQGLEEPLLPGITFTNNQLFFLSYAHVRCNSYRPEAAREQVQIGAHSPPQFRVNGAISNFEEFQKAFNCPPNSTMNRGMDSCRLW
- experiment-description: Surface plasmon resonance, peptide solution competition of secPHEX-MEPE binding
- condition-set: 250 nM secPHEX, MEPE 6000 RU; read-out: apparent KDapp, solution competition of MEPE-PHEX binding
pKd: −log10 of the molar value.
measure-name: pKd

Answer with the recorded pKd of H-CFSSRRRDDSSESSDSGSSSESDGD-OH [ASARM-peptide] only. ~4.46
